molecular target: human CXCR4 receptor (wild type) (human, UniProt P61073 1-352); assay: cell-based or functional assay
Sequence (P61073 whole entry): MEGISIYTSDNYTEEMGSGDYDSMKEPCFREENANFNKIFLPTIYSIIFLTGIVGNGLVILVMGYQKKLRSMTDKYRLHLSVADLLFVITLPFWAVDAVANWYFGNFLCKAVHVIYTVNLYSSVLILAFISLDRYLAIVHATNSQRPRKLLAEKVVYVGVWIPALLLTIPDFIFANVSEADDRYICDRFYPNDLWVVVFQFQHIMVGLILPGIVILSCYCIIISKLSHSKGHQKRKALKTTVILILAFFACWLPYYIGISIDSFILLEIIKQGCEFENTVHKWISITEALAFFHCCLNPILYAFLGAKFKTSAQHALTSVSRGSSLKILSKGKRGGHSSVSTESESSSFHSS
METRIC_NAME: % of inhibition of [35S]GTPγS binding stimulated by SDF-1 (100 nM) (%)
All answers are understood in %, so give the number only.

humanized antibody Hz515H7 VH1 D76N VL2 (antibody, human IgG1, kappa, V domains shown) VH: EVQLVESGGGLVQPGRSLRLSCTASGFTFTDNYMSWVRQAPGKGLEWVGFIRNKANGYTTEYAASVKGRFTISRDNSKSIAYLQMNSLKTEDTAVYYCARDVGSNYFDYWGQGTLVTVSS VL: DIVMTQSPSSLAVSLGERATMSCKSSQSLFNSRTRKNYLAWYQQKPGQSPKLLIYWASARDSGVPARFTGSGSETYFTLTISRVQAEDLAVYYCMQSFNLRTFGQGTKVEIKR
86

Output measured % of inhibition of [35S]GTPγS binding stimulated by SDF-1 (100 nM) for this item: humanized antibody Hz515H7 VH1 D76N VL2.1 (antibody, human IgG1, kappa, V domains shown) VH: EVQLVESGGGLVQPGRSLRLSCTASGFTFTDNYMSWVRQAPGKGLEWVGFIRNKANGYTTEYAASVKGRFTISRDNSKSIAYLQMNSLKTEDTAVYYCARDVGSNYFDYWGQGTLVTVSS VL: DIVMTQSPDSLAVSLGERATMSCKSSQSLFNSRTRKNYLAWYQQKPGQPPKLLIYWASARDSGVPDRFSGSGSETYFTLTISRVQAEDLAVYYCMQSFNLRTFGQGTKVEIKR
69

The origin of these recorded values is patent US20110020218A1.
